target: hA2a/CHO (Homo sapiens (Human), UniProt P29274); experiment: cAMP inhibition assay in hA2a/CHO cells, 10 μM adenosine; format: cell-based; conditions: read-out: cAMP & FLIPR IC50 (nM) hA2a;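 also: compounds added to cells 30 min ahead of adenosine, then a further 30 min at 37 °C with adenosine before cAMP detection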
Sequence (P29274 whole entry): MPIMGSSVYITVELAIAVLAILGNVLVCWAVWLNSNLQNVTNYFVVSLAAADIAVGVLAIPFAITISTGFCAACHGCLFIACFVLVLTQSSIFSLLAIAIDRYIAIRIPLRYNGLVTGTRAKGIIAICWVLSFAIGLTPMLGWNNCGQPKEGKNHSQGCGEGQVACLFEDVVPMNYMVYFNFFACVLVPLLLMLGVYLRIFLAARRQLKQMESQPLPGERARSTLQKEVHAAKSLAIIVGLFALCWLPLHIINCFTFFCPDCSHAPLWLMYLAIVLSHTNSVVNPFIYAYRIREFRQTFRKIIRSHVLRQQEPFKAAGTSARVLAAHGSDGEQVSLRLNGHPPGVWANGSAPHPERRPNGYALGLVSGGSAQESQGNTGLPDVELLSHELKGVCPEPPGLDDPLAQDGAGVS
For each of the compounds below, state its log10(IC50).
Would you kindly interpret these values as log10 of IC50 expressed in nM?

Reference set, count: 2
[[record]]
compound = "Cc1cnc2ccc(-c3nc(C(=O)NCc4cccc(N5CCN(C)C[C@@H]5C)n4)c(N)nc3-c3ncco3)cn12"
system = "hA2a/CHO (Homo sapiens (Human), UniProt P29274)"
metric_name = "log10(IC50)"
experimental_result = 0.64

[[record]]
compound = "Cc1cnc2ccc(-c3nc(C(=O)NCC4CCOC4)c(N)nc3-c3ccccn3)cn12 (single isomer, unassigned) [Example 305]"
system = "hA2a/CHO (Homo sapiens (Human), UniProt P29274)"
metric_name = "log10(IC50)"
experimental_result = 1.08


# batch: return log10(IC50) for each of the 5 compounds below
1. Cc1cnc2ccc(-c3nc(C(=O)N[C@H]4CCCOC4)c(N)nc3-c3ncco3)cn12 (single isomer, unassigned; isomer 1)
2. Cc1cc(-c2nc(C(=O)NCc3cccc(N(C)C)n3)c(N)nc2-c2ccc(F)cc2)ccn1
3. CC1CN(c2nc(C(=O)NCc3c(F)cccc3F)c(N)nc2-c2ccc(F)cc2)CC(C)O1 (stereo not shown)
4. Cc1cnc2ccc(-c3nc(C(=O)NCC4CC(C)(C)O4)c(N)nc3-c3ncco3)cn12 (single isomer, unassigned; isomer 2) [Example 270]
5. Cn1nc(-c2nc(C(=O)NCc3c(F)cccc3F)c(N)nc2-c2ncco2)ccc1=O

-- reply
1. 0.52
2. 1.56
3. 1.94
4. 0.87
5. 0.97
